Values were extracted from PubChem BioAssay (NCI).

Documented TGI across a set of molecules
system: SK-MEL-5 melanoma; test: NCI tumour cell line growth inhibition, 48 h
measurement_type: TGI (µM)

- CC1(C)CC(=O)C2=C(C1)OC1(CC2c2ccc(Cl)cc2)CC(c2ccc(Cl)cc2)C2=C(CC(C)(C)CC2=O)O1 (centres undefined): 31.4
- Nc1nc(N)c2c(n1)NC(c1sc(Cl)nc1Cl)CC(c1ccc3c(c1)OCO3)=N2 (centres undefined): 13.3
- O=S1(=O)c2ccccc2N=C(c2ccccc2Cl)CC1c1ccc(F)cc1 (centres undefined): 31.4
- COc1ccc(-c2n/c(=C\c3c(O)[nH]c4ccccc34)cc3c2=Nc2ccccc2-3)cc1: 2.64

====

test system: NCI-H522 lung; experiment: NCI tumour cell line growth inhibition, 48 h
Where a SMILES comes first, the peptide text is derived from it. The star is where a group is joined. Trt = c1ccc(C(c2ccccc2)(c2ccccc2)*)cc1; Cbz = O=C(OCc1ccccc1)*
Documented TGI across a set of compounds
measurement_type: TGI (µM)

- CC(C)[Si](OCC1CC(C#N)OC(C)(C)O1)(C(C)C)C(C)C (stereo not drawn): 43.5
- COc1ccc(C2=NC(c3ccc(Cl)cc3)C(c3ccc(Cl)cc3)N2C(=O)N2CCNC(=O)C2)c(OC(C)C)c1 (stereo not drawn): 4.09
- Nc1cc2c3c(cccc3c1)C(=O)N(c1ccc(OCCN3CCCC3)cc1)C2=O: 30.7
- CC(=O)c1c2c(cc3c1CC1(C3)Cc3cc4c(c(C(=O)O)c3C1)CCC4)CCC2 (stereo not drawn): 42.3
- COC(=O)C(CSC(c1ccccc1)(c1ccccc1)c1ccccc1)NC(=O)C(CC(N)=O)NC(=O)OCc1ccccc1 (stereo not drawn) (Cbz-Asn-Cys(Trt)-OMe; configuration not given here): 18.7
- Nc1c(C(=O)Nc2cccc3ccccc23)sc2nc3c(cc12)C(=O)CCC3: 1.02
- COc1cccc2c1cc1c3c(cc4c(c32)OCO4)C(=O)N1: 8.96
- O=C(C=C=Nc1ccccc1)C(=O)N=C=Cc1ccccc1: 4.97
- O=S(=O)(O)SCCNCCCCCC1CCCCC1: 37.3
- CC(C)C(NC(=O)C(Cc1ccccc1)NC(=O)[C@H]1CCC[C@H]1NC(=O)C(Cc1ccc(OC(C)(C)C)cc1)NC(=O)OC(C)(C)C)C(N)=O (stereo partly drawn): 30.7
- CC(C)(C)Sc1nnc(SC(C)(C)C)c2c(=O)[nH]nc(SC(C)(C)C)c12: 14.2
- Cc1cc2nc3c4ccc(Br)cc4n(CCN(C)C)c3nc2cc1C: 4.66
- [CH3][Sn]1([CH3])[O]CC(COc2cc(Cl)c(Cl)cc2Cl)[O]1 (stereo not drawn): 36.3
- COc1cc(Cn2c(-c3ccccc3)cc3c2-c2oncc2CC3)cc(OC)c1: 1.98
- Cc1c(Cl)c(C)c(Cc2c(C)c(Cl)c(C)c(Cl)c2O)c(O)c1Cl: 11.2
- Cc1csc(-n2c(C)nc3cc(Cl)ccc3c2=O)n1: 60.6
- O=[N+]([O-])/C(C(Cl)=C(Cl)Cl)=C(/Nc1ccccc1)Sc1ccccc1: 33.6
- CC(=O)Nc1ccc(-c2nnc(SCC(=O)Nc3ccc(Cl)cc3)o2)cc1: 5.98
- CCOC(=O)C(C/C=C/CO)N(C)C(=O)OC(C)(C)C (stereo not drawn): 61.4
